The following compounds are listed with their measured IC50 values.
Target: human HPK1 protein (Homo sapiens, UniProt Q92918)
Construct: recombinant human HPK1 protein (a.a. 1-346) was expressed in Sf9 insect cells; GST (N); purchased Signalchem M23-11G; host or cells: Sf9 insect cells (baculovirus)
Sequence (Q92918 1-346): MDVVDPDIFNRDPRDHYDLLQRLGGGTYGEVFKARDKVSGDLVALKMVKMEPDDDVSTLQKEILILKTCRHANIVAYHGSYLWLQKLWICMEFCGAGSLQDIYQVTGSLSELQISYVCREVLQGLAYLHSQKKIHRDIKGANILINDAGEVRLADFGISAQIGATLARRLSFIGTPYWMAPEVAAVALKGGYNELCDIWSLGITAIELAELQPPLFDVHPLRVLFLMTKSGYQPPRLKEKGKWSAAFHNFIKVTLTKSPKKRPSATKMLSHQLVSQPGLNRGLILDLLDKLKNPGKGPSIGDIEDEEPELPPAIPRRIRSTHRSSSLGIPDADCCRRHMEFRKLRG
Assay: Human HPK1 protein TR-FRET assay
Type: biochemical
Settings: 1 mM ATP, Table 20

Solved entries:
INSERT INTO results (compound, measurement_target, property, assay_result) VALUES
  ('CCN1CCN(Cc2ccc(NC(=O)N3Cc4cc(Oc5ccnc6c5CCC(=O)N6)cnc4C(C)C3)cc2C(F)(F)F)CC1 (single isomer, unassigned) [XIV-1]', 'human HPK1 protein (Homo sapiens, UniProt Q92918)', 'IC50', '< 500 nM'),
  ('CCN1CCN(Cc2ccc(NC(=O)N3CCc4ccc(Oc5cc(NC(=O)c6cnn(C)c6)ncc5F)cc4[C@@H]3C)cc2C(F)(F)F)CC1 [XIII-17]', 'human HPK1 protein (Homo sapiens, UniProt Q92918)', 'IC50', '< 500 nM'),
  ('O=C(Nc1ccc(CN2CCNCC2)c(C(F)(F)F)c1)N1CCc2ccc(Oc3c(F)cnc4[nH]c(C5(O)CC5)cc34)cc2C1 [XVIII-5]', 'human HPK1 protein (Homo sapiens, UniProt Q92918)', 'IC50', '< 500 nM'),
  ('C[C@H]1c2cc(Oc3c(F)cnc4[nH]c(-c5cnn(C)c5)cc34)ccc2CCN1C(=O)Nc1ccc(CN2CCN(C)CC2)c(C(F)(F)F)c1 [XII-3]', 'human HPK1 protein (Homo sapiens, UniProt Q92918)', 'IC50', '< 500 nM'),
  ('C=C(C)c1cc2c(Oc3cnc4c(c3)CN(C(=O)Nc3ccc(CN5CCN(C)CC5)c(C(F)(F)F)c3)C[C@@H]4CC)ccnc2[nH]1 [XIV-152]', 'human HPK1 protein (Homo sapiens, UniProt Q92918)', 'IC50', '< 500 nM'),
  ('CC[C@@H]1CN(C(=O)Nc2ccc(CN3CCNCC3)c(C(F)(F)F)c2)Cc2cc(Oc3ccnc4[nH]c(C5(O)COC5)cc34)cnc21 [XIV-48]', 'human HPK1 protein (Homo sapiens, UniProt Q92918)', 'IC50', '< 500 nM');

Qu. Recorded IC50 for CC[C@H]1CN(C(=O)Nc2ccc(CN3CCN(C)CC3)c(C(F)(F)F)c2)Cc2cc(Oc3ccnc4[nH]c(-c5cn[nH]c5)cc34)cnc21 [XIV-149] , please?
Ans. < 500 nM

Qu. Recorded IC50 for CC[C@@H]1CN(C(=O)Nc2ccc(CN3CCN(CCO)CC3)c(C(F)F)c2)Cc2cc(Oc3ncnc4[nH]c(C5CC5)cc34)ccc21 [XV-42] , please?
Ans. < 500 nM

Qu. Recorded IC50 for CN1CCN(Cc2ccc(NC(=O)N3CCc4ccc(Oc5c(F)cnc6[nH]c(-c7cccnc7)cc56)cc4C3)cc2C(F)(F)F)CC1 [XII-7] , please?
Ans. < 500 nM

Qu. Recorded IC50 for CC[C@@H]1CN(C(=O)Nc2ccc(CN3CCN(C)CC3)c(C(F)(F)F)c2)Cc2cc(Oc3ccnc4[nH]c(CO)cc34)cnc21 [XIV-56] , please?
Ans. < 500 nM

Qu. Recorded IC50 for CC[C@@H]1CN(C(=O)Nc2ccc(CN3CCN(CC)CC3)c(C(F)(F)F)c2)Cc2cc(Oc3ncnc4[nH]c(C5CC5)cc34)cnc21 [XIV-37] , please?
Ans. < 500 nM

Qu. Recorded IC50 for CN1CCN(Cc2ncc(NC(=O)N3CCc4ccc(Oc5c(F)cnc6[nH]c(-c7cn[nH]c7)cc56)cc4C3)cc2C(F)(F)F)CC1 [XII-8] , please?
Ans. < 500 nM

Qu. Recorded IC50 for C[C@@H]1Cc2ccc(Oc3ccnc4[nH]c(C(=O)N(C)C)cc34)cc2CN1C(=O)Nc1cnc(CN2CCN(C)CC2)c(C(F)(F)F)c1 [XVI-10] , please?
Ans. < 500 nM
